# protocol: chemical genetic growth profiling, strain panel (AID 1159580);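 note: tested at 20 µM; growth read once vehicle control cultures reached saturation at 30 °C; 1 = growth at the plate median or of vehicle wells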
# condition context: S. cerevisiae deletion strains, growth OD, locus YNL224C, strain SQS1, stronger effect = lower value
About 2,000 (36%) of roughly 5,500 compounds were called active. Not shown: some 18% with an inconclusive outcome. Some of the results follow.
Criterion: normalized growth strictly less than 1. Met: class 1. Not met: class 0.

compound: O=C(c1cc(O)c(O)c([N+](=O)[O-])c1)c1ccccc1F
category: class 1

Does this compound meet the criterion normalized growth < 1? CN(C)CC/C=C1\c2ccccc2COc2ccccc21
class 0

Query O=C(NCC1CCCCN1)c1cc(OCC(F)(F)F)ccc1OCC(F)(F)F (centres undefined) next
class 0

Now this one: CN(C)CCC=C1c2ccccc2CCc2ccccc21
class 0

Same for CCN1CCC[C@H]1CNC(=O)c1c(O)c(Cl)cc(Cl)c1OC
class 0

---

# protocol: chemical genetic growth profiling, strain panel (AID 1159580);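 note: tested at 20 µM; growth read once vehicle control cultures reached saturation at 30 °C; 1 = growth at the plate median or of vehicle wells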
# condition context: S. cerevisiae deletion strains, growth OD, locus YLR262C, strain YPT6
Among all 5,500 compounds or so, about 2,000 (36%) were called active. Not shown: some 18% with an inconclusive outcome. Rule as the data show it: active = normalized growth mostly below about 0.91 (no sharp cut-off); inconclusive = no clear call, values can overlap the other calls; inactive = mostly above about 0.92. The list shows a part of the results.
Select the matching outcome among active, inactive

Call for entry Cc1c(C)c(C)c(CO)c(C)c1C :
inactive

Same lookup for CC(C)Oc1ccc2c(=O)cc(-c3ccccc3)oc2c1 , please.
inactive

Subsequent entry: COC(=O)c1cn(Cc2ccc(C(F)(F)F)cc2)cc(F)c1=O
inactive

For FC(F)(F)c1ccc(-c2nc(-c3ccc4c(c3)OCCCO4)cs2)cc1 then?
inactive

Now this one: CC(C)(C)C(=O)N1CCN(c2ncccc2C(F)(F)F)CC1
inactive

How about CC(=O)Nc1ccc(O)cc1 ?
inactive

And then C[N+]1(CCCCC[N+]2(C)CCCC2)CCCC1 , what is it?
inactive

Same question for CSc1nc(N)nc(C(C)(C)C)n1 please.
inactive

Follow-up item: CCCN1C[C@H](CSC)C[C@@H]2c3cccc4[nH]cc(c34)C[C@H]21
inactive

Also c1ccc(Sc2c(-c3ccccc3)nc3ccccn23)cc1 , if possible.
active

Follow-up entry: Cc1ccc(OCC(=O)NN)c2c1CCC2
inactive

// same read-out, input: COc1ccc(-c2cc(=O)c3ccccc3o2)cc1OC
inactive

Lookup COC(=O)C1=C(C)NC(C)=C(C(=O)OCCN(C)Cc2ccccc2)C1c1cccc([N+](=O)[O-])c1 (stereo not drawn)
inactive

Check COc1ccc(-c2cc(=O)c3ccccc3o2)cc1 too.
active

Another molecule to look at: CC1(C)O[C@@H]2CC3C4C[C@H](F)C5=CC(=O)C=CC5(C)C4C(O)CC3(C)[C@]2(C(=O)CO)O1 (stereo partly drawn)
inactive

# repeat for O=C1CCc2cc(OCCCCc3nnnn3C3CCCCC3)ccc2N1
inactive

Another molecule to look at: CC[N+]1(C)CCCC(OC(=O)C(O)(c2ccccc2)c2ccccc2)C1 (stereo not drawn)
inactive

Also check CC(=O)O[C@@H]1CC2C(C)(C)C(=O)CC[C@]2(C)C2CC[C@@]3(C)[C@H](c4ccoc4)OC(=O)C4OC43[C@@]21C (stereo partly drawn)
inactive

Again, but for CC(=O)O[C@H]1C[C@@H](O)C(C)(C)C2C[C@@H](OC(C)=O)[C@]3(C)C(CC[C@@]4(C)[C@H](c5ccoc5)OC(=O)C5OC543)[C@]21C (stereo partly drawn)
inactive

Okay, and CC(=O)O[C@@H]1CC2C(C)(C)CCC(=O)[C@]2(C)C2CC[C@@]3(C)[C@H](c4ccoc4)OC(=O)C4OC43[C@@]21C (stereo partly drawn) ?
inactive
